Just for reference, ChEMBL document CHEMBL5604064 is where these values come from.

Target: NS3 protease (dengue virus type 1, UniProt A0A0K0TQ28)
Sequence (A0A0K0TQ28 whole entry): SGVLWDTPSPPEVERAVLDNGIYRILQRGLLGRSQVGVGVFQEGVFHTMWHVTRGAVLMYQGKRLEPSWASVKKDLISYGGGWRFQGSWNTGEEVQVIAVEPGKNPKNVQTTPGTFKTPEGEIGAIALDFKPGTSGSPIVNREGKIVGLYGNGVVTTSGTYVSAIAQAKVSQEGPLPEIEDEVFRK
Experiment: Functional biochemical assay to identify treatments for viral infectious disease that targets Dengue virus type 1 NS2B-NS3 protease. Utilizing a direct enzyme activity measurement method, reading the fluorescence intensity is used to characterize the relative potency of inhibitors as IC50.
measured_attribute: IC50

As a guide, the following entries are already answered.
compound_structure_string | target | IC50
NCc1csc2cc(C(=O)Nc3ccc4c(c3)CNC4)ccc12 | NS3 protease (dengue virus type 1, UniProt A0A0K0TQ28) | 9.99 µM
O=C(Nc1ccc2c(c1)CNC2)c1ccc2[nH]ccc2c1 | NS3 protease (dengue virus type 1, UniProt A0A0K0TQ28) | > 99.5 µM
CC(C)c1cc(Br)cc(C(=O)Nc2ccc3c(c2)CNC3)c1 | NS3 protease (dengue virus type 1, UniProt A0A0K0TQ28) | > 99.5 µM
O=C(Nc1cc(Cl)cc(C(=O)Nc2ccc3c(c2)CNC3)c1)OCc1ccccc1 | NS3 protease (dengue virus type 1, UniProt A0A0K0TQ28) | > 99.5 µM
CC(C)(C)c1cc(Br)cc(C(=O)Nc2ccc3c(c2)CNC3)c1 | NS3 protease (dengue virus type 1, UniProt A0A0K0TQ28) | > 99.5 µM

# input for lookup
Q: Look up and report measured IC50 (NS3 protease (dengue virus type 1, UniProt A0A0K0TQ28)) for the following compound: `CN1Cc2ccc(NC(=O)c3cc(Cl)cc4[nH]ncc34)cc2C1`
A: > 99.5 µM

====

Target: NS3 protease (dengue virus type 1, UniProt A0A0K0TQ28)
Experiment: Functional biochemical assay to identify treatments for viral infectious disease that targets Dengue virus type 1 NS2B-NS3 protease. Utilizing a direct enzyme activity measurement method, reading the fluorescence intensity is used to characterize the relative potency of inhibitors as IC50.
measured_attribute: log10 IC50 (log10 of the value in µM)
A value of 2 here means IC50 of 100 in µM, since values are log10.

compound_structure_string | log10 IC50
Cc1ccccc1-c1nc2c(C(=O)Nc3ccc4c(c3)CNC4)cc(F)cc2[nH]1 | 0.34

Q: Look up and report measured log10 IC50 (NS3 protease (dengue virus type 1, UniProt A0A0K0TQ28)) for the following compound: `O=C1Cc2c(cc(Br)cc2C(=O)Nc2ccc3c(c2)CNC3)N1`
A: 1.93

Q: Look up and report measured log10 IC50 (NS3 protease (dengue virus type 1, UniProt A0A0K0TQ28)) for the following compound: `O=C(Nc1cc(Cl)cc([C@H]2CN(Cc3ccccc3)C[C@@H]2c2cccc(-c3nn[nH]n3)c2)c1)OCc1ccccc1`
A: 0.82

Q: Look up and report measured log10 IC50 (NS3 protease (dengue virus type 1, UniProt A0A0K0TQ28)) for the following compound: `O=C(Nc1ccc2c(c1)CNC2)c1cc(Cl)cc2nn(-c3ccccc3)nc12`
A: 0.43

Q: Look up and report measured log10 IC50 (NS3 protease (dengue virus type 1, UniProt A0A0K0TQ28)) for the following compound: `O=C(Nc1ccc2c(c1)CNC2)c1cc(Br)cc2[nH]c(=O)[nH]c12`
A: 1.51

Q: Look up and report measured log10 IC50 (NS3 protease (dengue virus type 1, UniProt A0A0K0TQ28)) for the following compound: `Clc1ccc2[nH]cc(Cc3ccc(-c4nn[nH]n4)cc3)c2c1`
A: 1.80

Q: Look up and report measured log10 IC50 (NS3 protease (dengue virus type 1, UniProt A0A0K0TQ28)) for the following compound: `Cc1cccc(-c2nc3c(C(=O)Nc4ccc5c(c4)CNC5)cc(F)cc3[nH]2)c1`
A: 0.77
